Tested on: 485176-168-R4-J1-PDC spheroids with HUVEC/MSC, viability;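 also: spheroids exposed to compounds for seven days before readout; percent viability relative to DMSO vehicle control wells as 100%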
Assay: Anticancer human tumor 485176-168-R4-J1-PDC patient-derived pancreatic adenocarcinoma cell line growth inhibition [GQUAD]
Settings: second compound 0.0316 µM; first compound 1 µM; hits give low values
Description: DNA G-quadruplex Stabilizer Agents in Combinations in Complex Spheroids A high-throughput screen of multi-cell type tumor spheroids was designed to identify active combinations of DNA G-quadruplex stabilizer agents and targeted small molecules. […] Compounds. […] If the clinical Cmax for an agent had not been determined, the highest concentration tested was 10 microM. […]
# viability, T/C per record follows
Please state the figure in %; there is no need to write the unit.

compound	subject_of_test	observed_value
O=C(NO)c1cnc(N2CCN(S(=O)(=O)c3ccc4ccccc4c3)CC2)nc1 + Cc1cnc(CNC(=O)c2c(=O)c3ccc(N4CCCN(C)CC4)nc3n3c2sc2ccccc23)cn1	485176-168-R4-J1-PDC spheroids with HUVEC/MSC, viability	8.83
COc1ncnc(C2CC2)c1-c1ncc2cnn(Cc3ccc(-c4nc(C(F)(F)F)cn4C(C)C)cc3)c2n1 + Cc1cnc(CNC(=O)c2c(=O)c3ccc(N4CCCN(C)CC4)nc3n3c2sc2ccccc23)cn1	485176-168-R4-J1-PDC spheroids with HUVEC/MSC, viability	89.7

query: Fill blank: measured viability, T/C of the compound COc1cccc2c1C(=O)c1c(O)c3c(c(O)c1C2=O)CC(O)(C(=O)CO)CC3OC1CC(N)C(O)C(C)O1 (stereo unspecified) + Cc1cnc(CNC(=O)c2c(=O)c3ccc(N4CCCN(C)CC4)nc3n3c2sc2ccccc23)cn1 is ____.
result: 13.4

query: Fill blank: measured viability, T/C of the compound Nc1ccn(C2OC(CO)C(O)C2(F)F)c(=O)n1 (stereo unspecified) + Cc1cnc(CNC(=O)c2c(=O)c3ccc(N4CCCN(C)CC4)nc3n3c2sc2ccccc23)cn1 is ____.
result: 8.82

query: Fill blank: measured viability, T/C of the compound COc1ccc([C@@H](O)c2cc(-c3ncnc4cc(N5CCOCC5)ccc34)c(F)cc2Cl)nn1 + Cc1[nH]c2ccc(F)cc2c1-c1nc2c3cccnc3c3ncccc3c2[nH]1 is ____.
result: 69.8

query: Fill blank: measured viability, T/C of the compound CC1COCCN1c1cc(-c2ccnn2C)c2ccnc(-c3ccn[nH]3)c2n1 (stereo unspecified) + Cc1[nH]c2ccc(F)cc2c1-c1nc2c3cccnc3c3ncccc3c2[nH]1 is ____.
result: 10.6

query: Fill blank: measured viability, T/C of the compound CCCS(=O)(=O)Nc1ccc(F)c(C(=O)c2c[nH]c3ncc(-c4ccc(Cl)cc4)cc23)c1F + CN(C)c1ccc(Nc2c3ccc(NC(=O)CCN4CCCC4)cc3nc3cc(NC(=O)CCN4CCCC4)ccc23)cc1 is ____.
result: 86.4
